- systemUnderTest: BChE (EC 3.1.1.8) (Equus caballus, UniProt P81908)
- Construct: BChE (EC 3.1.1.8, from equine serum); purchased Aladdin Industrial Co., Ltd. (Shanghai, China); host or cells: equine serum (natural source)
- Sequence (P81908 whole entry): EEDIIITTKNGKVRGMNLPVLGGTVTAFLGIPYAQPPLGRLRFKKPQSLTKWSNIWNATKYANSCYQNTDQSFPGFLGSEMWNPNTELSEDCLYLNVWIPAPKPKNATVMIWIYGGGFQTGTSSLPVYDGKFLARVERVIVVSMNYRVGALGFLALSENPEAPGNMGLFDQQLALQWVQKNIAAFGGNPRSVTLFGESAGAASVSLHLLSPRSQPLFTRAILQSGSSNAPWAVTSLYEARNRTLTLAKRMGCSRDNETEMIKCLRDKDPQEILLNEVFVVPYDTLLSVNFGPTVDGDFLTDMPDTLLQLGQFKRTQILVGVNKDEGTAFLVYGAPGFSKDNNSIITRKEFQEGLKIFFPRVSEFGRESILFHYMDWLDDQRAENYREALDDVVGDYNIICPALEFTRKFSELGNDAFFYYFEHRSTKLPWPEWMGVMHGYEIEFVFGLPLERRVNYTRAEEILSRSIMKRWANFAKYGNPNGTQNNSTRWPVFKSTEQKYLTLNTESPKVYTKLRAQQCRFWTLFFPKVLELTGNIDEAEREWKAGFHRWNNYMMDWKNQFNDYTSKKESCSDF
- testDetails: BChE inhibitory activity assay (modified Ellman's method)
- Assay type: biochemical
- experimentalConditions: up to 100 μM where stated

# smilesText, BChE inhibitory effect, in words
records = [
    ("Oc1cc(O)cc(-c2cc3ccc(O)cc3o2)c1", "did not inhibit"),
    ("COc1cc(O)cc(-c2cc3cc(O)c(OC)cc3o2)c1", "did not inhibit"),
]

###

- systemUnderTest: BChE (EC 3.1.1.8) (Equus caballus)
- Construct: BChE (EC 3.1.1.8, from equine serum); purchased Aladdin Industrial Co., Ltd. (Shanghai, China); host or cells: equine serum (natural source)
- testDetails: Kinetic study of BChE inhibition (Lineweaver–Burk and secondary plots)
- Type: biochemical
- experimentalConditions: Lineweaver–Burk plots

# molecule, BChE Inhibition Type
data = [
    ("CC(C)=CCc1c(O)cc(-c2cc3ccc(O)cc3o2)cc1O [Compound 8, moracin C]", "Mixed competitive"),
    ("CC1(C)C=Cc2c(O)cc(-c3cc4ccc(O)cc4o3)cc2O1 [Compound 9, moracin D]", "Mixed competitive"),
]

###

- systemUnderTest: BChE (EC 3.1.1.8) (Equus caballus, UniProt P81908)
- Construct: BChE (EC 3.1.1.8, from equine serum); purchased Aladdin Industrial Co., Ltd. (Shanghai, China); host or cells: equine serum (natural source)
- testDetails: Kinetic study of BChE inhibition (Lineweaver–Burk and secondary plots)
- Assay type: biochemical
- experimentalConditions: from secondary plot of slope of Lineweaver–Burk lines vs [I]; binding to free enzyme; read-out: BChE Ki

# smilesText, Ki / µM
records = [
    ("CC(C)=C/C=C1\\C(=O)Oc2cc(O)ccc21", 93.4),
    ("CC(C)=CCc1c(O)cc(-c2cc3ccc(O)cc3o2)cc1O", 12.8),
    ("CC(C)=CCc1cc2cc(-c3cc(O)cc(O)c3)oc2cc1O", 12.7),
    ("CC(C)=CCc1c(O)cc2c(c1-c1cc3ccc(O)cc3o1)C=CC(C)(C)O2", 1.7),
]
